Below, each of the binders is paired with its reported kon value.
targetOrTestSystem: T1, huIL-18Rβ-HisAvi (human, UniProt O95256 20-356, biotinylated in the Octet blocking assay)
T1 construct: Soluble analyte in all SPR runs; captured on streptavidin sensors in the Octet assay; also called human IL-18Rβ; human IL-18Rβ-Avi-His
T1 sequence: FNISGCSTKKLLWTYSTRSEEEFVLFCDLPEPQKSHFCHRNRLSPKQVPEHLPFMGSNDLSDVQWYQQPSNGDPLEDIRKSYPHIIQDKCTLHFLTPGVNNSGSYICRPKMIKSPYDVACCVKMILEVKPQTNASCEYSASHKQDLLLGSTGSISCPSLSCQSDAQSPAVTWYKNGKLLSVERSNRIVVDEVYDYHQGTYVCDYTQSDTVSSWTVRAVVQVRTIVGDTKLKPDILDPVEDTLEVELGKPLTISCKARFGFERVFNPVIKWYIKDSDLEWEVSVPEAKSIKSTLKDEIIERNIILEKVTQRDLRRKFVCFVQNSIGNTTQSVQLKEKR
assayProcedure: SPR T200, mAb on anti-hFc, 37C, pH 7.4
measurementLabel: kon (M⁻¹ s⁻¹)

P21-V1 (antibody, human IgG1, kappa, V domains shown, Variant of P21) VH: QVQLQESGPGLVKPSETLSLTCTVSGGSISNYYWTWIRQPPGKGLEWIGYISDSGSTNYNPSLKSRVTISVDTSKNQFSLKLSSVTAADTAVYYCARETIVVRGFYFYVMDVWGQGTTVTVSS VL: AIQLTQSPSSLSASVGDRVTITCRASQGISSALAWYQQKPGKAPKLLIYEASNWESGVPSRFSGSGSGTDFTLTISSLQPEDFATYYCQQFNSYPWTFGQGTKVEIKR: 360000
P21 (antibody, human IgG1, kappa, V domains shown, Human IgG) VH: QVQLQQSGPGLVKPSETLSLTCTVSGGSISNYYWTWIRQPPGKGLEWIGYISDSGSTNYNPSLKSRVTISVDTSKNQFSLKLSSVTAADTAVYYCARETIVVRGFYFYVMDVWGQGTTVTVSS VL: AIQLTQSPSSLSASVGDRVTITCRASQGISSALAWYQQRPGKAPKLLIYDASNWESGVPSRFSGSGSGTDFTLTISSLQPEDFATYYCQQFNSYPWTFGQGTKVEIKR: 240000
P20-V1 (antibody, human IgG1, kappa, V domains shown, Variant of P20) VH: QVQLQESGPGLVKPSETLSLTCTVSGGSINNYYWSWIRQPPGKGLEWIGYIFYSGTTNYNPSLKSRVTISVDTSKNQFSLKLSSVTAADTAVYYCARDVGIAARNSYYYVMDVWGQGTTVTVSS VL: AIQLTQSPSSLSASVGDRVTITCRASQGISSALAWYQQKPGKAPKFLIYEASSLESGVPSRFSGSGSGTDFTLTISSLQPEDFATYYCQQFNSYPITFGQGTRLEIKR: 340000
P20-V2 (antibody, human IgG1, kappa, V domains shown, Variant of P20) VH: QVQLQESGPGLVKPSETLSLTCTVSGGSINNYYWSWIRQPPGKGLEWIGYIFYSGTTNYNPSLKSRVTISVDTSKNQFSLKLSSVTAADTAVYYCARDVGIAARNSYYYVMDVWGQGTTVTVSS VL: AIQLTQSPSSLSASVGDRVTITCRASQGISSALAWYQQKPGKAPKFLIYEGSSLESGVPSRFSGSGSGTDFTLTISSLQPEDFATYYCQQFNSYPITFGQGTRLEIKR: 360000
